TESTED_SYSTEM: NDM-1 (Klebsiella pneumoniae)
Sequence (C7C422 43-270 limits assumed, looked up, species assumed): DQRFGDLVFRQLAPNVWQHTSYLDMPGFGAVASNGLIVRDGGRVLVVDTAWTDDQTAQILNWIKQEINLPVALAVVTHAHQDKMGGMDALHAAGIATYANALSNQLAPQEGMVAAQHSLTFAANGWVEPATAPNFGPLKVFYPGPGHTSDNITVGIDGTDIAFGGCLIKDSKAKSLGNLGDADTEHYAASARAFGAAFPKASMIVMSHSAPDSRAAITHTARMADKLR
pKi: −log10 of the molar value.
METRIC: pKi

QUERY: Request body: readout pKi, system NDM-1 (Klebsiella pneumoniae), query "NC(=O)[C@@H]1CC[C@@H]2CN1C(=O)N2OS(=O)(=O)O" . Return the value.
RESULT: < 2.30

---

TESTED_SYSTEM: VIM-4 (Pseudomonas aeruginosa)
STUDY_CONDITIONS: read-out: Approximate Ki value (reflecting Km), from a single avibactam concentration (1 mM), ceftazidime 30 µM substrate
METRIC: Ki

QUERY: Suppose we examine the compound "NC(=O)[C@@H]1CC[C@@H]2CN1C(=O)N2OS(=O)(=O)O" ; what Ki value has been reported?
RESULT: > 5 mM
